# z-score annotations
- ASSAY INFO: growth effects on S. cerevisiae YJM789 – YJM789 clinical isolate, OD600, 24 h, basal, primary screen (AID 1089);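 note: growth of clinical yeast isolate S. cerevisiae YJM 789 seeded 1000 cells per well; test concentration not given here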
- CONDITION INFO: higher = more signal, called active from +8 up or from −8 down
Reply with just the number.

Below are worked cases with known answers.
[[record]]
molecule = "[N-]=[N+]=NCc1ccccc1[C@H]1OC(c2ccc(OCCCO)cc2)=N[C@@]1(Cc1ccccc1N=[N+]=[N-])C(=O)NCC(O)CO (some centres not stated)"
observed = -0.527

[[record]]
molecule = "O=C1C2C=CC(C(O)c3ccco3)N(Nc3ccccc3F)C2C(=O)N1c1ccccc1 (configuration not stated)"
observed = 0.252

[[record]]
molecule = "COc1cc2c(cc1O)C(c1cccs1)N(Cc1cc3c(cc1Br)OCO3)CC2 (configuration not stated)"
observed = -0.592

[[record]]
molecule = "CN1C2C=C(CCCO)C(C3C(=O)N(C(N)=O)C(=O)C32)C1C1CC1 (configuration not stated)"
observed = -0.163

[[record]]
molecule = "COCC(=C=CC[C@H](O)c1ccccc1OCCO)C[C@H](O)c1ccccn1"
observed = 0.636


# get_value(readout='z-score', item= `COCCOC(=O)N1C(=O)[C@@]2(c3ccccc31)[C@H](c1ccc(O)cc1)N1[C@H](c3ccccc3)[C@H](c3ccccc3)OC(=O)[C@H]1[C@@H]2C(=O)N1CCN(c2ncccn2)CC1` )
0.42

# input molecule: `COc1ccc(C#Cc2ccc3c(c2)[C@]2(C(=O)N3)[C@H](c3ccc(O)cc3)N3[C@H](c4ccccc4)[C@H](c4ccccc4)OC(=O)[C@H]3[C@@H]2C(=O)Nc2nc3ccccc3s2)cc1` ; wanted: its z-score
1.51
